Measured Relative Inhibition of IL-13 induced TF-1 Proliferation IC50 by item
Target: T1, hIL-4Rα on cells (human, UniProt P24394 26-825)
T1 sequence: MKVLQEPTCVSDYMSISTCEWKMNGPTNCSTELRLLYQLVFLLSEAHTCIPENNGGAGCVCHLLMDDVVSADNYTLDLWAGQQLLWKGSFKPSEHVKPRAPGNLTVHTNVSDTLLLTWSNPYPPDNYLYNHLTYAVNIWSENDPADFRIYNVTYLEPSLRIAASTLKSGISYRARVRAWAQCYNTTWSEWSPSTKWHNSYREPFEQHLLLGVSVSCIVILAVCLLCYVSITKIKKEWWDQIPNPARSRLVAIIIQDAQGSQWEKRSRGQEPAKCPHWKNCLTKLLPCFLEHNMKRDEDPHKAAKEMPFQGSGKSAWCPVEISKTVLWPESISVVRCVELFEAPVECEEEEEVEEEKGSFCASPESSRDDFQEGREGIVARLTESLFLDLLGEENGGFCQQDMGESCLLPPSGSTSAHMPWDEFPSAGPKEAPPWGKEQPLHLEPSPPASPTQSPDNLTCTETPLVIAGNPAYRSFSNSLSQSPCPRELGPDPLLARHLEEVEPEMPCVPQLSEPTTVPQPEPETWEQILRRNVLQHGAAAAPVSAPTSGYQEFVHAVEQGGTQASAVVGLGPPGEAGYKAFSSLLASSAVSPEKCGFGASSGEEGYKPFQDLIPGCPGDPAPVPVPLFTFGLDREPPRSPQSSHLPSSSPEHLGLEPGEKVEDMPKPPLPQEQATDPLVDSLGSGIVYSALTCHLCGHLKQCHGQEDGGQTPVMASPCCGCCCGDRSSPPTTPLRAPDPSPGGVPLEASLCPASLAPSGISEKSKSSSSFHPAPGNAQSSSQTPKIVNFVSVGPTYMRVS
Assay: cell-based or functional assay

binder	endpoint result
Construct 35 (mAb467) (antibody, IgG4, V domains shown, VH/VL only) VH: EVQLVESGGGLEQPGGSLRLSCAGSGFTFRTYAMTWVRQAPGKGLEWVSSISGSGGNTYYADSVKGRFTISRDNSKNTLYLQMNSLRAEDTAVYYCAKDRVSITIRPRYYGLDVWGQGTTVTVSS VL: DIVMTQSPLSLPVTPGEPASISCTSSQSLLYSIGKNYVDWYLQKSGQSPQLLIYEGNNRATGVPDRFSGSGSGTDFTLKISRVEAEDVGFYYCMQSLTSPYTFGQGTKLEIK	1.11 relative to dupilumab
Construct 39 (mAb473) (antibody, IgG4, V domains shown, VH/VL only) VH: EVQLVESGGGLEQPGGSLRLSCAGSGFTFRDSAMTWVRQAPGKGLEWVSSISGSGDNTYYADSVKGRFTISRDNSKNTLYLQMNSLRAEDTAVYYCAKDRLSITVRPRYYGLDVWGQGTTVTVSS VL: DIVMTQSPLSLPVTPGEPASISCRSSQSLLYSIGKNYVDWYLQKSGQSPQLLIYLGNKRASGVPDRFSGSGSGTDFTLKISRVEAEDVGFYYCMQALGSPYTFGQGTKLEIK	1.21 relative to dupilumab

Please report the measured Relative Inhibition of IL-13 induced TF-1 Proliferation IC50 for Construct 45 (mAb494) (antibody, IgG4, V domains shown, VH/VL only) VH: EVQLVESGGGLEQPGGSLRLSCAGSGFTFRDFAMTWVRQAPGKGLEWVSSISGSGDGTYYADSVKGRFTISRDNSKNTLYLQMNSLRAEDTAVYYCAKDRVSITIRPRYYGLDVWGQGTTVTVSS VL: DIVMTQSPLSLPVTPGEPASISCTASQSLLYSIGYNYVDWYLQKSGQSPQLLIYLGNNRATGVPDRFSGSGSGTDFTLKISRVEAEDVGFYYCMQSLQTPYTFGQGTKLEIK 1.79 relative to dupilumab

Specify reported Relative Inhibition of IL-13 induced TF-1 Proliferation IC50 for the binder shown: Construct 4 (mAb413) (antibody, IgG4, V domains shown, VH/VL only) VH: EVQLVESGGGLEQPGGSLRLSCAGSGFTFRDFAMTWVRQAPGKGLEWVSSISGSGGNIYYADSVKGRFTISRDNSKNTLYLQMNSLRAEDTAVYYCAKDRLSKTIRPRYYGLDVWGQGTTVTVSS VL: DIVMTQSPLSLPVTPGEPASISCTASQSLLYSIGYNYVDWYLQKSGQSPQLLIYLGNNRATGVPDRFSGSGSGTDFTLKISRVEAEDVGFYYCMQALTTPYTFGQGTKLEIK 1.11 relative to dupilumab

Give the value of Relative Inhibition of IL-13 induced TF-1 Proliferation IC50 reported for the following: Construct 10 (mAb419) (antibody, IgG4, V domains shown, VH/VL only) VH: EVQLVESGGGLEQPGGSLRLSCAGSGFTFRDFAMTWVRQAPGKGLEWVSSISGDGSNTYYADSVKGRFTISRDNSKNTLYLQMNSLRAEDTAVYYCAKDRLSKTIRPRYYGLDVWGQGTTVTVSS VL: DIVMTQSPLSLPVTPGEPASISCRSSQSLLYSIGYNYVDWYLQKSGQSPQLLIYLGNKRASGVPDRFSGSGSGTDFTLKISRVEAEDVGFYYCMQALGSPYTFGQGTKLEIK 1.39 relative to dupilumab

Return the recorded Relative Inhibition of IL-13 induced TF-1 Proliferation IC50 value; entry: Construct 13 (mAb422) (antibody, IgG4, V domains shown, VH/VL only) VH: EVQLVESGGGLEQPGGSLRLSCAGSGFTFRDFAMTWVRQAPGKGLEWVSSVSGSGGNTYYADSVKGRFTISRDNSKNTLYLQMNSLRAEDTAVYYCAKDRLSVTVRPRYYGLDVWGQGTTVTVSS VL: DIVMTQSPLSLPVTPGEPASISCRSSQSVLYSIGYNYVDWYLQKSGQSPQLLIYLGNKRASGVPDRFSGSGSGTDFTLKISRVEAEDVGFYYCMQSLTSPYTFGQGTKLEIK 0.794 relative to dupilumab
